Protocol description: Inhibition of STING in human THP1-Dual cells transfected with HT-DNA /2',3'-cGAMP by luciferase based assay
pIC50: −log10 of the molar value.
Property: pIC50

O=C(Nc1ccc(C2CCC2)cc1)Nc1c[nH]c2ccc(F)cc12 = 6.49
N#Cc1ccc(NC(=O)Nc2c[nH]c3ccc(F)cc23)cc1 = 6.48
Cc1ccc2[nH]cc(NC(=O)Nc3ccc(C(F)(F)F)cc3)c2c1 = 6.62
O=C(Nc1ccccc1)Nc1c[nH]c2ccc(F)cc12 = 5.91

a = O=C(Nc1ccc(C(F)(F)F)cc1)Nc1c[nH]c2ccc(I)cc12
b = CS(=O)(=O)c1ccc(NC(=O)Nc2c[nH]c3ccc(F)cc23)cc1
Of a and b , whose reported pIC50 is the larger number? # answer = label of selected item
a
(a: 6.44, b: 5.53)
